Each recorded value in this set is attributed to ChEMBL document CHEMBL1137205.

assay: Cmax value in dog after po administration of 1.0 mg/kg; type: ADME, organism-based, Canis lupus familiaris; set-up: dose 1 mg/kg, route oral; conditions: in vivo

- structure-as-smiles: "O=c1[nH]c(CCCN2CC=C(c3ccc(F)cc3)CC2)nc2c(Cl)cccc12"
  Cmax: "280 ng/mL"

----------
Overview of reported pIC50 across a group of molecules:
biological target: Poly [ADP-ribose] polymerase 1 (Homo sapiens); test: In vitro inhibitory concentration against human recombinant Poly (ADP-ribose) polymerase 1
Sequence (P09874 whole entry): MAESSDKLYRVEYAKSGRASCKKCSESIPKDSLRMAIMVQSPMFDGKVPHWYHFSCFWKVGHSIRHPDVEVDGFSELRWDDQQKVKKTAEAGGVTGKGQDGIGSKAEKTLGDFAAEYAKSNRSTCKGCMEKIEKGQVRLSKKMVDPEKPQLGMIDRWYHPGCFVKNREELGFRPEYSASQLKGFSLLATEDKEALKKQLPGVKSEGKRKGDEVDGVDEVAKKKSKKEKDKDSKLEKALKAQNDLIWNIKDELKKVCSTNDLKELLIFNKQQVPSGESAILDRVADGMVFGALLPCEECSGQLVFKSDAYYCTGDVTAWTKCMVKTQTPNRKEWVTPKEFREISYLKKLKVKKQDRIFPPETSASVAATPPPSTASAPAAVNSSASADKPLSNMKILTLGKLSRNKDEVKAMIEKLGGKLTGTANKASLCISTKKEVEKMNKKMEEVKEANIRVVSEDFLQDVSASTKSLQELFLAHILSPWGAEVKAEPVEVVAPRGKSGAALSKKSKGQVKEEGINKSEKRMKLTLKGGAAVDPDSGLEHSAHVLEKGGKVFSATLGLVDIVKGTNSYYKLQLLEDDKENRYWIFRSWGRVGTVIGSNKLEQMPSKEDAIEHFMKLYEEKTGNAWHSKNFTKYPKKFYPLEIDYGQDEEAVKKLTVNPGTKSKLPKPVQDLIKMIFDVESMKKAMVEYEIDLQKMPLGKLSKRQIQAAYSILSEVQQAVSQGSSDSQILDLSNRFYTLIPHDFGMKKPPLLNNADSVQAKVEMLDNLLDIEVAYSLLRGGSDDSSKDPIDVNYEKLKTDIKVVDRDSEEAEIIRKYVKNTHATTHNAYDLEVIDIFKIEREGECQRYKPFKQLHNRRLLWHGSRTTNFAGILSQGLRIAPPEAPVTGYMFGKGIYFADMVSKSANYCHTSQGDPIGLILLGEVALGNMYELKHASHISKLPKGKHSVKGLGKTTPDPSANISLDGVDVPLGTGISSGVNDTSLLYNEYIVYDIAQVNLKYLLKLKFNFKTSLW
pIC50: −log10 of the molar value.

- molecule: "COc1cccc2c(=O)[nH]c(CCCN3CC=C(c4ccccc4)CC3)nc12"
  censoring-qualifier: "="
  pIC50: 7.59
- molecule: "Oc1nc(CCCN2CC=C(c3ccc(-[n+]4ccccc4)cc3)CC2)nc2ccccc12"
  censoring-qualifier: "="
  pIC50: 7.92
- molecule: "Oc1nc(CCCN2CC=C(c3ccccc3F)CC2)nc2ccccc12"
  censoring-qualifier: "="
  pIC50: 7.43
- molecule: "COc1ccccc1C1=CCN(CCCc2nc(O)c3ccccc3n2)CC1"
  censoring-qualifier: "="
  pIC50: 6.77
- molecule: "O=c1[nH]c(CCCN2CC=C(c3ccc(Cl)cc3)CC2)nc2ccccc12"
  censoring-qualifier: "="
  pIC50: 7.64
- molecule: "Cc1cccc2c(=O)[nH]c(CCCN3CC=C(c4ccccc4)CC3)nc12"
  censoring-qualifier: "="
  pIC50: 7.85
- molecule: "O=c1[nH]c(CCCC2CC=C(c3ccccc3)CC2)nc2ccccc12 (configuration not stated)"
  censoring-qualifier: "<"
  pIC50: 6.00
- molecule: "O=c1[nH]c(CCCN2CC=C(c3ccc(F)cc3)CC2)nc2ccccc12"
  censoring-qualifier: "="
  pIC50: 8.05
- molecule: "O=c1[nH]c(CCCN2CCC(c3ccccc3)CC2)nc2ccccc12"
  censoring-qualifier: "="
  pIC50: 7.34
- molecule: "Oc1nc(CCCN2CC=C(c3ccccc3)CC2)nc2ccc(Cl)cc12"
  censoring-qualifier: "="
  pIC50: 7.57
- molecule: "Oc1nc(CCCN2CCc3c([nH]c4ccccc34)C2)nc2ccccc12"
  censoring-qualifier: "="
  pIC50: 7.13
- molecule: "O=c1[nH]c(CCCN2CC=C(c3ccc(F)cc3)CC2)nc2c(Cl)cccc12"
  censoring-qualifier: "="
  pIC50: 7.89
- molecule: "Cc1ccc(C2=CCN(CCCc3nc(O)c4ccccc4n3)CC2)cc1"
  censoring-qualifier: "="
  pIC50: 7.77
- molecule: "Oc1nc(CCCN2CCC3=C(CCc4ccccc43)C2)nc2ccccc12"
  censoring-qualifier: "="
  pIC50: 7.92
- molecule: "O=c1[nH]c(CCCN2CC=C(c3cccc(F)c3)CC2)nc2ccccc12"
  censoring-qualifier: "="
  pIC50: 7.64
- molecule: "Oc1nc(CCCN2CC=C(c3ccc(-c4ccccc4)cc3)CC2)nc2ccccc12"
  censoring-qualifier: "="
  pIC50: 7.47
- molecule: "CCc1cccc2c(O)nc(CCCN3CC=C(c4ccccc4)CC3)nc12"
  censoring-qualifier: "="
  pIC50: 7.18
- molecule: "O=c1[nH]c(CCCN2CC=C(c3ccccc3)CC2)nc2cccc(Cl)c12"
  censoring-qualifier: "="
  pIC50: 7.19
- molecule: "O=c1[nH]c(CCCN2CC=C(c3ccccc3)CC2)nc2c(Cl)cc(Cl)cc12"
  censoring-qualifier: "="
  pIC50: 7.41
- molecule: "O=c1[nH]c(CCCN2CC=C(c3ccccc3)CC2)nc2ccccc12"
  censoring-qualifier: "="
  pIC50: 7.80
- molecule: "O=c1[nH]c(CCCN2CC=C(c3ccccc3)CC2)nc2c(Cl)cccc12"
  censoring-qualifier: "="
  pIC50: 7.59
- molecule: "COc1ccc(C2=CCN(CCCc3nc(O)c4ccccc4n3)CC2)cc1"
  censoring-qualifier: "="
  pIC50: 8.08

----------
Overview of reported concentration at 0.5 h across a group of compounds:
assay: Concentration in plasma was measured at 0.5 hrs in mice following po administration of 32 mg/kg; format: ADME, organism-based; parameters: dose 32 mg/kg, route oral; conditions: mouse

- structure-as-smiles: "Oc1nc(CCCN2CC=C(c3ccccc3)CC2)nc2ccc(Cl)cc12"
  unit: "µg/mL"
  concentration at 0.5 h: 16.2
- structure-as-smiles: "O=c1[nH]c(CCCN2CC=C(c3ccccc3)CC2)nc2cccc(Cl)c12"
  unit: "µg/mL"
  concentration at 0.5 h: 4.18
- structure-as-smiles: "COc1ccc(C2=CCN(CCCc3nc(O)c4ccccc4n3)CC2)cc1"
  unit: "µg/mL"
  concentration at 0.5 h: 6.05
- structure-as-smiles: "O=c1[nH]c(CCCN2CC=C(c3ccc(C(F)(F)F)cc3)CC2)nc2ccccc12"
  unit: "µg/mL"
  concentration at 0.5 h: 6.8
- structure-as-smiles: "O=c1[nH]c(CCCN2CCC(c3ccccc3)CC2)nc2ccccc12"
  unit: "µg/mL"
  concentration at 0.5 h: 0.25
- structure-as-smiles: "Cc1cccc2c(=O)[nH]c(CCCN3CC=C(c4ccccc4)CC3)nc12"
  unit: "µg/mL"
  concentration at 0.5 h: 0.94
- structure-as-smiles: "O=c1[nH]c(CCCN2CC=C(c3ccc(Cl)cc3)CC2)nc2ccccc12"
  unit: "µg/mL"
  concentration at 0.5 h: 12.1
- structure-as-smiles: "Oc1nc(CCCN2CCc3c([nH]c4ccccc34)C2)nc2ccccc12"
  unit: "µg/mL"
  concentration at 0.5 h: 77.2
- structure-as-smiles: "Oc1nc(CCCN2CCN(c3ccccc3)CC2)nc2ccccc12"
  unit: "µg/mL"
  concentration at 0.5 h: 2.27
- structure-as-smiles: "Oc1nc(CCCN2CC=C(c3ccccc3)CC2)nc2cc(Cl)ccc12"
  unit: "µg/mL"
  concentration at 0.5 h: 0.08
- structure-as-smiles: "O=c1[nH]c(CCCN2CC=C(c3ccccc3)CC2)nc2ccccc12"
  unit: "µg/mL"
  concentration at 0.5 h: 0.68
- structure-as-smiles: "Oc1nc(CCCN2CC=C(c3ccc(-[n+]4ccccc4)cc3)CC2)nc2ccccc12"
  unit: "µg/mL"
  concentration at 0.5 h: 14.1
- structure-as-smiles: "COc1cccc2c(=O)[nH]c(CCCN3CC=C(c4ccccc4)CC3)nc12"
  unit: "µg/mL"
  concentration at 0.5 h: 0.24
- structure-as-smiles: "Oc1nc(CCCN2CC=C(c3ccccc3)CC2)nc2cccc(F)c12"
  unit: "µg/mL"
  concentration at 0.5 h: 0.37
- structure-as-smiles: "O=c1[nH]c(CCCN2CC=C(c3ccc(F)cc3)CC2)nc2ccccc12"
  unit: "µg/mL"
  concentration at 0.5 h: 6.83
- structure-as-smiles: "N#Cc1ccc(C2=CCN(CCCc3nc(O)c4ccccc4n3)CC2)cc1"
  unit: "µg/mL"
  concentration at 0.5 h: 20
- structure-as-smiles: "O=c1[nH]c(CCCN2CC=C(c3ccc(F)cc3)CC2)nc2c(Cl)cccc12"
  unit: "µg/mL"
  concentration at 0.5 h: 1
- structure-as-smiles: "Cc1ccc(C2=CCN(CCCc3nc(O)c4ccccc4n3)CC2)cc1"
  unit: "µg/mL"
  concentration at 0.5 h: 5.4
- structure-as-smiles: "O=c1[nH]c(CCCN2CC=C(c3ccccc3)CC2)nc2c(Cl)cccc12"
  unit: "µg/mL"
  concentration at 0.5 h: 1.28

----------
experiment: Concentration in plasma was measured at 0.5 hrs in mice following ip administration of 32 mg/kg; type: ADME, organism-based; set-up: dose 32 mg/kg, route intraperitoneal; settings: mouse
Overview of reported concentration at 0.5 h across a group of compounds:

- structure-as-smiles: "Cc1nc2cccc(Cl)c2c(=O)[nH]1"
  unit: "ng/mL"
  concentration at 0.5 h: 6700
- structure-as-smiles: "O=c1[nH]c(=O)n(CCCCN2CC=C(c3ccccc3)CC2)c2cccc(F)c12"
  unit: "ng/mL"
  concentration at 0.5 h: 700
- structure-as-smiles: "O=c1[nH]c(CCCN2CC=C(c3ccccc3)CC2)nc2cccc(Cl)c12"
  unit: "ng/mL"
  concentration at 0.5 h: 1200

----------
assay: Half-life in rat after iv administration of 10 mg/kg; format: ADME, organism-based; parameters: dose 10 mg/kg, route intravenous; details: in vivo
measurement-type: half-life (h)

- structure-as-smiles: "O=c1[nH]c(CCCN2CC=C(c3ccc(F)cc3)CC2)nc2c(Cl)cccc12"
  unit: "h"
  experimental-value: 1.4

----------
Overview of reported concentration at 2 h across a group of molecules:
test: Concentration in plasma was measured at 2 hrs in mice following po administration of 32 mg/kg; format: ADME, organism-based; parameters: dose 32 mg/kg, route oral; settings: mouse
measurement-type: concentration at 2 h

- structure-as-smiles: "Cc1cccc2c(=O)[nH]c(CCCN3CC=C(c4ccccc4)CC3)nc12"
  experimental-value: "400 ng/mL"
- structure-as-smiles: "COc1ccc(C2=CCN(CCCc3nc(O)c4ccccc4n3)CC2)cc1"
  experimental-value: "1670 ng/mL"
- structure-as-smiles: "Oc1nc(CCCN2CCN(c3ccccc3)CC2)nc2ccccc12"
  experimental-value: "530 ng/mL"
- structure-as-smiles: "Oc1nc(CCCN2CC=C(c3ccccc3)CC2)nc2cc(Cl)ccc12"
  experimental-value: "510 ng/mL"
- structure-as-smiles: "O=c1[nH]c(CCCN2CC=C(c3ccc(F)cc3)CC2)nc2c(Cl)cccc12"
  experimental-value: "500 ng/mL"
- structure-as-smiles: "Cc1ccc(C2=CCN(CCCc3nc(O)c4ccccc4n3)CC2)cc1"
  experimental-value: "840 ng/mL"
- structure-as-smiles: "O=c1[nH]c(CCCN2CC=C(c3ccc(C(F)(F)F)cc3)CC2)nc2ccccc12"
  experimental-value: "3270 ng/mL"
- structure-as-smiles: "O=c1[nH]c(CCCN2CC=C(c3ccccc3)CC2)nc2cccc(Cl)c12"
  experimental-value: "2170 ng/mL"
- structure-as-smiles: "Oc1nc(CCCN2CC=C(c3ccccc3)CC2)nc2cccc(F)c12"
  experimental-value: "140 ng/mL"
- structure-as-smiles: "N#Cc1ccc(C2=CCN(CCCc3nc(O)c4ccccc4n3)CC2)cc1"
  experimental-value: "5200 ng/mL"
- structure-as-smiles: "Oc1nc(CCCN2CC=C(c3ccccc3)CC2)nc2ccc(Cl)cc12"
  experimental-value: "15500 ng/mL"
